# Test system: parasites (ring stage parasites, parasite growth)
# protocol_notes: Parasite LDH growth assay (Parasite Assay), antiparasite potency
# Type: cell-based
# stated_conditions: 72 h, 72 hours growth, LDH readout; Table 3
property: EC50 (nM)
Give the quantity in nM, number only.

[
  {
    "compound": "COc1ccc([C@H]([C@@H]2C[C@H]2C(=O)N[C@@H]2c3ccccc3OC(C)(C)[C@H]2O)N2C(=N)NC(C)(C)CC2=O)cn1 [Example 39]",
    "numeric_value": 10.1
  },
  {
    "compound": "COCC[C@H]([C@@H]1C[C@H]1C(=O)N[C@H]1CC(C)(C)Oc2ccc(C)cc21)N1C(=N)NC(C)(C)CC1=O [Example 132]",
    "numeric_value": 6.7
  },
  {
    "compound": "CCC1(CC)CC(=O)N([C@@H](c2cccnc2)[C@H]2[C@H](C(=O)N[C@H]3C[C@H](C(F)(F)F)Oc4ccccc43)C2(C)C)C(=N)N1 [Example 44A]",
    "numeric_value": 8.3
  }
]

input: Query: EC50; subject: CC[C@]1(C)CC(=O)N([C@H](CCOC)[C@@H]2C[C@H]2C(=O)N[C@@H]2c3ccccc3OC(C)(C)[C@H]2O)C(=N)N1 [Example 61]
output: 6.9

====

# Tested on: parasites (ring stage parasites, parasite growth)
# protocol_notes: Parasite LDH growth assay (Parasite Assay), antiparasite potency
# Format: cell-based
# stated_conditions: 72 h, 72 hours growth, LDH readout; Table 3
Entries and their measured EC50 follow.
Give the quantity in nM, number only.

input: Query: EC50; subject: COCC[C@H]([C@@H]1C[C@H]1C(=O)N[C@@H]1CC(C)(C)Oc2cccc(OC)c21)N1C(=N)NC(C)(C)CC1=O [Example 74A]
output: 33

input: Query: EC50; subject: `COc1cncc([C@H]([C@@H]2C[C@H]2C(=O)N[C@@H]2c3ccccc3OC(C)(C)[C@H]2O)N2C(=N)NC(C)(C)CC2=O)c1`
output: 18.4

input: Query: EC50; subject: `Cc1ccc2c(c1)[C@@H](NC(=O)[C@@H]1C[C@H]1CN1C(=N)NC(C)(C)CC1=O)CC(C)(C)O2`
output: 280

input: Query: EC50; subject: CCC1(CC)CC(=O)N([C@@H](c2cccnc2)[C@H]2[C@H](C(=O)N[C@H]3CC(C)(C)Oc4ccccc43)C2(C)C)C(=N)N1 [Example 48B]
output: 7.4

input: Query: EC50; subject: COCC[C@H]([C@@H]1C[C@H]1C(=O)NC1CC(C)(C)Oc2ccc(OC(F)(F)F)cc21)N1C(=N)NC(C)(C)CC1=O (stereo partly drawn) [Example 126A]
output: 4.7

input: Query: EC50; subject: CC(C)C1(C)CC(NC(=O)[C@@H]2C[C@H]2CN2C(=N)NC(C)(C)CC2=O)c2ccccc2O1 (stereo partly drawn) [Example 79A]
output: 255

input: Query: EC50; subject: CCC1(CC)CC(=O)N([C@H](c2cccnc2)[C@@H]2C(C)[C@H]2C(=O)N[C@H]2C[C@H](C(F)(F)F)Oc3ccccc32)C(=N)N1 (stereo partly drawn) [Example 55A]
output: 0.8

input: Query: EC50; subject: `COCC[C@H]([C@@H]1C[C@H]1C(=O)N[C@H]1CC(C)(C)Oc2ccccc21)N1C(=N)N[C@](C)(C(C)C)CC1=O`
output: 5.3

input: Query: EC50; subject: `Cc1ccc2c(c1)OC(C)(C)C[C@@H]2NC(=O)[C@@H]1C[C@H]1CN1C(=N)NC(C)(C)CC1=O`
output: 289
